Values compiled from PubChem BioAssay.

test: small-molecule binders of probe aLefty1, primary screen, biochemical, small-molecule microarray, 635/667 nm fluorescence (AID 1153); details: higher = more signal;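 note: score merges spot fluorescence with signal-to-noise ratio from the scanned slide images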
Rule: composite z-score of -0.2 or more gives yes; anything lower gives no.

| COMPOUND | LABEL CLASS |
| --- | --- |
| C[C@]1(C(=O)O)c2ccccc2C(=O)N(Cc2ccccc2)[C@H]1c1ccc(CO)cc1 | yes |
| CN(C)C(=O)[C@@]1(Cc2ccccc2N=[N+]=[N-])COC(c2ccc(OCCCO)cc2)=N1 | no |
| Cc1ccc(S[C@]2(C(=O)NCC(C)C)CC(=O)N(Cc3ccccc3Cl)[C@@H]2c2ccc(CO)cc2I)cc1 | yes |
| C[C@]12C(=O)N(CCCCCCO)[C@@H]3C(=O)N(c4ccc(Cl)cc4)CC=CC31O[C@@H]1/C=C\CCCOC(=O)C12 (some centres not stated) | no |
| O=c1cccc(-c2cccc(Cl)c2)o1 | yes |
| C=CCC(OC(C)=O)[C@@H]1[C@@H](N(Cc2ccc(-c3ccccc3)cc2)C(=O)c2cccc3ccccc23)c2cc(OCCCO)ccc2N1C(=O)Cc1ccc2ccccc2c1 (some centres not stated) | yes |
| C=CCOC(=O)[C@@H]1[C@H]2C(=O)O[C@H](c3ccccc3)[C@H](c3ccccc3)N2[C@H](c2ccc(OCCOC(=O)[C@H]3C[C@H]4C(=O)N[C@@H](CCCCNC(C)=O)C(=O)N4[C@H]3c3cccc(OCCO)c3)cc2)[C@@]12C(=O)Nc1ccc(I)cc12 | yes |
